test system: sorbitol dehydrogenase derived from Pseudomonas fluorescens A-989 strain; test: Substrate specificity (Vmax/Km, Km) of sorbitol dehydrogenase from A-989 strain; type: biochemical; conditions: relative to D-sorbitol taken as 100; enzyme from Pseudomonas fluorescens A-989
Items are presented alongside their recorded Vmax/Km.
Form entry: value (%) — number only.

OC[C@H](O)[C@@H](O)[C@H](O)[C@@H](O)CO; 2.78
OC[C@@H](O)[C@H](O)[C@@H](O)CO; 0
OC[C@@H](O)[C@H](O)[C@H](O)[C@@H](O)CO; 36.8
OC[C@@H](O)C(O)[C@H](O)CO; 0
OC[C@@H](O)[C@@H](O)[C@H](O)[C@H](O)CO; 0
O=C[C@H](O)[C@@H](O)[C@H](O)[C@H](O)CO; 0

Now consider a different compound.
In: Returns the measured Vmax/Km for the input compound. Input: `OC[C@@H](O)[C@@H](O)[C@H](O)[C@@H](O)CO`
Out: 100

----------
tested on: sorbitol dehydrogenase derived from Pseudomonas fluorescens A-654 strain; assay: Substrate specificity (Vmax/Km, Km) of sorbitol dehydrogenase from A-654 strain; format: biochemical; details: relative to D-sorbitol taken as 100; enzyme from Pseudomonas fluorescens A-654
METRIC: Vmax/Km (%)
Form entry: value (%) — number only.

# example entries with known answers
O=C[C@H](O)[C@@H](O)[C@H](O)[C@H](O)CO; 0
OC[C@@H](O)[C@H](O)[C@H](O)[C@@H](O)CO; 31.9
OC[C@H](O)[C@@H](O)[C@H](O)[C@@H](O)CO; 1.55
OC[C@@H](O)[C@H](O)[C@@H](O)CO; 0
OC[C@@H](O)[C@@H](O)[C@H](O)[C@@H](O)CO; 100
OC[C@@H](O)C(O)[C@H](O)CO; 0

Now consider a different compound.
In: Returns the measured Vmax/Km for the input compound. Input: `OC[C@@H](O)[C@@H](O)[C@H](O)[C@H](O)CO`
Out: 0

----------
test system: sorbitol dehydrogenase derived from Flavimonas oryzihabitans A-520 strain; assay: Substrate specificity (Vmax/Km, Km) of sorbitol dehydrogenase from A-520 strain; assay type: biochemical; conditions: relative to D-sorbitol taken as 100; enzyme from Flavimonas oryzihabitans A-520
METRIC: Vmax/Km
Please make sure the unit comes right after the number.

# example entries with known answers
OC[C@H](O)[C@@H](O)[C@H](O)[C@@H](O)CO; 1.99%
OC[C@@H](O)[C@@H](O)[C@H](O)[C@H](O)CO; 0%
OC[C@@H](O)[C@H](O)[C@H](O)[C@@H](O)CO; 28.9%
OC[C@@H](O)[C@H](O)[C@@H](O)CO; 0%
O=C[C@H](O)[C@@H](O)[C@H](O)[C@H](O)CO; 0%
OC[C@@H](O)[C@@H](O)[C@H](O)[C@@H](O)CO; 100%

Now consider a different molecule.
In: Returns the measured Vmax/Km for the input molecule. Input: `OC[C@@H](O)C(O)[C@H](O)CO`
Out: 0%
